system: lymphocytes (fresh spleen cells); assay: Lymphocyte proliferation assay (ConA-induced spleen cells); type: cell-based, rat; conditions: lymphocyte proliferation induced with 5 μg/mL ConA, 48 hours; test concentration not given
Returns Fulfilled if the recorded Inhibition rate (%) is greater than or equal to 50%, and Not fulfilled otherwise.

Example cases with answers are listed next.
- compound: "C=CC[C@@H]1/C=C(\\C)C[C@H](C)C[C@H](OC)[C@H]2O[C@@](O)(C(=O)C(=O)N3CCCC[C@H]3C(=O)O[C@H](/C(C)=C/[C@@H]3CC[C@@H](O)[C@H](OC)C3)[C@H](C)[C@@H](O)CC1=O)[C@H](C)C[C@@H]2OC [Tacrolimus, reference compound]"
  category: "Fulfilled"
- compound: "O=C(NCCc1ccccn1)c1csc(-c2cnn3cccnc23)n1"
  category: "Not fulfilled"
- compound: "O=C(NCc1ccc(F)cc1F)c1csc(-c2cnn3ccccc23)n1"
  category: "Not fulfilled"
- compound: "O=C(c1nc(C(=O)N2CCC[C@H]2c2cccnc2)cs1)c1c[nH]c2ccccc12"
  category: "Fulfilled"
- compound: "O=C(c1csc(-c2cnn3cccnc23)n1)N1CCC[C@H]1c1cc(F)ccc1F"
  category: "Not fulfilled"

Request: Decide: Inhibition rate (%) of CC(=O)NCCNC(=O)c1csc(C(=O)c2c[nH]c3ccccc23)n1 >= 50%?
Response: Not fulfilled

Request: Decide: Inhibition rate (%) of CC(C)=CCC/C(C)=C/CC/C(C)=C/COC(=O)c1csc(C(=O)c2c[nH]c3ccccc23)n1 >= 50%?
Response: Not fulfilled
